test system: UACC-62; assay: NCI tumour cell line growth inhibition, 48 h
Activity calls are given as the source filed them. Rule as the data show it: active = GI50 up to about 1.1 µM and inactive = higher.
Listing: GI50 of selected compounds

Examples from the recorded data:
>  <compound>
O=C(NCCCCCN1CCC2(CCCCC2)CC1)C(C1CCCCC1)C1CCCCC1

>  <readout.kind>
GI50

>  <data.value>
2.48 µM (inactive)

$$$$
>  <compound>
CC(Oc1ccc(Cl)cc1Cl)C(=O)NN1C(=O)CC(=O)NC1=S (stereo not given)

>  <readout.kind>
GI50

>  <data.value>
36.5 µM (inactive)

$$$$

Enquiry: Please look at this compound and report its GI50: CCNC(=O)COc1ccc(Br)cc1Br
Return: 33.3 µM (inactive)

Enquiry: Could you please provide reported GI50 for COc1cc2c(cc1OC)C(CC1=C(c3ccccc3)CN3CCc4cc(OC)c(OC)cc4C3C1)NCC2 (stereo not given) ? Thanks!
Return: 20.4 µM (inactive)
